# Lookup of reported Kd keyed by entry
# target-desc: Phosphodiesterase 4 (Homo sapiens, UniProt P27815+Q08499+Q07343+Q08493)
# protocol: Inhibition of rolipram binding to Phosphodiesterase 4
# Assay type: protein assay
Report as a plain number; the unit µM is understood.

These recorded examples may help you get a feel for the data.
>>> test_result("O=C1CC(c2cc3c(c(OC4CCCC4)c2)OCCC3)CN1 (stereo unspecified)")
0.21
>>> test_result("O=C1CC(c2ccc3c(c2)OC2(CCCCC2)O3)CN1 (stereo unspecified)")
16.5
>>> test_result("O=C1CC(c2cc3c(c(OC4CCCC4)c2)OCC3)CN1 (stereo unspecified)")
4

QUERY: Look up Kd: O=C1CC(c2cc(OC3CCCC3)c3occc3c2)CN1 (stereo unspecified)
RESULT: 0.03
